Reported values of normalized growth for individual entries
# ASSAY_EXPLANATION: chemical genetic growth profiling, strain panel (AID 1159580);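 also: tested at 20 µM; growth read once vehicle control cultures reached saturation at 30 °C; 1 = growth at the plate median or of vehicle wells; lower values mean less growth of the strain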
# ASSAY_CONDITIONS: S. cerevisiae deletion strains, growth OD, locus YKL101W, strain HSL1, hits give low values
In all, about 5,500 compounds went through this assay and about 2,000 (36%) were called active. Inconclusive results (about 18%) are left out. This is one part of the list.
ENDPOINT_NAME: normalized growth

INSERT INTO results (compound, assay_value) VALUES
  ('Cc1ccc(C)n1-c1ccc(/C=C2/C(=O)Nc3ccccc32)cc1', 0.939),
  ('CC(C)(C)NC(=S)N/N=C\c1ccccc1O', 0.917),
  ('O=C1Nc2ccccc2/C1=C\c1cccc([N+](=O)[O-])c1', 0.967),
  ('Oc1c(Cl)cc(Cl)cc1C=Nc1ccc(Sc2ccccc2)nc1Sc1ccccc1', 0.674),
  ('Oc1c(Br)cc(Br)cc1C=Nc1ccccn1', 0.375),
  ('CN(C)C=Nc1nnc(Sc2nc3c(Cl)cc(Cl)cc3s2)s1', 1.01),
  ('CC(NC(=S)N/N=C\c1ccccc1O)c1ccccc1 (configuration not stated)', 0.978),
  ('Cc1c(C)c(C)c(C(O)c2ccccc2)c(C)c1C (configuration not stated)', 0.781),
  ('OC(COc1ccc(F)cc1)(c1ccccc1)c1ccccc1', 0.962),
  ('COc1cc(Br)cc(C=Nc2ccc(Sc3ccccc3)nc2Sc2ccccc2)c1O', 0.861),
  ('O=C1Nc2ccccc2/C1=C\c1ccc(Cl)cc1', 0.829),
  ('Oc1c(Br)cc(Br)cc1/C=N\n1cnnc1', 0.225);
